- experimental target: BCL-XLΔC
- assay details: FP
pKd: −log10 of the molar value.

- binder: "IWIAQELRRIGDEFNAYYARRVXKKKKK (fluorescein isothiocyanate (FITC) on the N-terminus; citrulline after the linker's valine (written X in the letters); DSPE-PEG(2000)-succinyl lipid tail on the side chain of the C-terminal lysine)"
  pKd: 6.78

Data provenance is paper PMC6719084.
